The origin of these recorded values is PubChem BioAssay.

- tgt: Epidermal growth factor receptor (Homo sapiens)
- assay_summary: EGFR binders on small-molecule microarrays, primary screen, biochemical, small-molecule microarray, 635 nm fluorescence (AID 1104);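 also: score merges 667 nm emission intensity with spot signal to noise over triplicate slides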
- run_conditions: EGFR binding, higher = more signal

compound | composite z-score
COCCOC(=O)N1C(=O)[C@@]2(c3ccccc31)[C@H](c1ccc(OCCO)cc1)N1[C@H](c3ccccc3)[C@H](c3ccccc3)OC(=O)[C@H]1[C@@H]2C(=O)N1CCCCCCC1 | 2.03
NCCCCCNC(=O)[C@H]1C[C@H]2C(=O)N[C@@H](Cc3ccccc3)C(=O)N2[C@H]1c1ccc(O)cc1 | -0.381
C=CC1c2cc(O)c(OC)cc2CCN1Cc1ccc([N+](=O)[O-])o1 (stereo unspecified) | -0.841
COCCOC(=O)N1C(=O)[C@@]2(c3cc(C#Cc4ccc(OC)cc4)ccc31)[C@H](C(=O)NC[C@H](O)c1ccccc1)[C@H]1C(=O)O[C@H](c3ccccc3)[C@H](c3ccccc3)N1[C@@H]2c1ccc(OCCO)cc1 | 0.384
COc1cc2c(cc1OC)CN(C(=O)[C@@H]1[C@H]3C(=O)O[C@H](c4ccccc4)[C@H](c4ccccc4)N3[C@H](c3ccc(O)cc3)[C@@]13C(=O)Nc1ccc(C#CCCO)cc13)CC2 | -0.0629
COCCOC(=O)N1C(=O)[C@@]2(c3cc(C#CCC(C(=O)OC)C(=O)OC)ccc31)[C@H](c1ccc(O)cc1)N1[C@H](c3ccccc3)[C@H](c3ccccc3)OC(=O)[C@H]1[C@@H]2C(=O)NC[C@H](O)c1ccccc1 | 0.335
